Each recorded value in this set is attributed to PubChem BioAssay (NCI).

test system: SK-MEL-2 melanoma; test: NCI tumour cell line growth inhibition, 48 h; in the data active means GI50 below about 0.43 µM; inactive means the rest
Respond only with the outcome that fits, drawn from active, inactive

{"COMPOUND": "CCC(=O)OC1=CN2C(=NC(c3ccc(N)cc3)=CC2c2cc(OC)c(OC)c(OC)c2)S1 (centres undefined)", "CATEGORY": "inactive"}
{"COMPOUND": "O=C(c1ccccc1)c1ccccc1C(=O)c1ccccc1", "CATEGORY": "inactive"}

Assay outcome for C[C@H]1CCC/C=C/[C@@H]2C[C@H](O)C[C@H]2[C@H](O)[C@@H](SC2OC(CO)C(O)C(O)C2O)CC(=O)O1 (some centres undefined) : what was it?
inactive

Subsequent entry: NC(=S)N/N=C\c1nccc2c(C(F)(F)C(F)(F)C(F)(F)F)cccc12
active

Subsequent entry: Cc1[nH]n(-c2ccccc2)c(=O)c1C(=O)c1ccccc1
inactive

Subsequent entry: O=C(Nc1ccc(-c2ccnc(Nc3ccc(N4CCOCC4)cc3)n2)cc1)C1CCCN1 (centres undefined)
inactive

Subsequent entry: O=c1oc2cc(OS(=O)(=O)c3ccccc3)ccc2c2c1CCCCC2
inactive

Subsequent entry: COc1cc(CNC(=O)CCSc2nc3ccccc3c(=O)n2Cc2cc(OC)c(OC)c(OC)c2)cc(OC)c1OC
inactive

Subsequent entry: N#CC1CCc2c(c(-c3cn[nH]c3C(F)(F)F)nc3c(F)cc4[nH]ncc4c23)C1 (centres undefined)
inactive

###

tested on: PC-3 prostate; test: NCI tumour cell line growth inhibition, 48 h
Could you please report measured TGI for the items listed next?

Examples with answers:
{"COMPOUND": "C=C1C(=O)O[C@H]2[C@H]([C@H](C)CCCC(C)=O)O[C@H]([C@@]3(C)CCC(=O)O3)C[C@@H]12", "VAL": "> 100 µM"}
{"COMPOUND": "C=C(C)[C@@H]1CC[C@]2(C)[C@H](CC=C3[C@@H]4[C@H](C)[C@@H](C)CC[C@]4(CO)CC[C@]32C)[C@@]1(C)CCCN", "VAL": "7.48 µM"}
{"COMPOUND": "Cc1ccc(S(=O)(=O)N2CCN(CCO)CCN(S(=O)(=O)c3ccc(C)cc3)CCN(CCO)CC2)cc1", "VAL": "> 100 µM"}
{"COMPOUND": "COc1cc(/C=C\\c2cc(OC)c(OC)c(OC)c2)cc(NS(=O)(=O)c2cccc(Cl)c2)c1OC", "VAL": "> 100 µM"}
{"COMPOUND": "O[C@H](CN1CC1)[C@@H](O)CN1CC1", "VAL": "> 100 µM"}
{"COMPOUND": "OC(O)(C(F)(F)F)C(F)(F)F", "VAL": "> 100 µM"}
{"COMPOUND": "COc1ccc(/C=C/c2cnc3ccccc3n2)cc1OC", "VAL": "> 100 µM"}
{"COMPOUND": "CCC(=O)OC1=CN2C(=NC(c3ccc(N)cc3)=CC2c2cc(OC)c(OC)c(OC)c2)S1 (configuration not stated)", "VAL": "42.9 µM"}

Hello, I would appreciate it if you could give TGI for each entry below.
1. CN(C)c1ccc(N=C(C#N)c2nc(N)nc(N3CCN(c4ccccc4)CC3)n2)cc1
2. COC(=O)C[C@H](CCSC)NC(=O)C[C@H](CCSC)NC(=O)C[C@H](CCSC)NC(=O)OC(C)(C)C
3. CC(=O)O[C@H](C[C@H](C(C)C)N(C)C(=O)[C@@H](NC(=O)[C@H]1CCCCN1C)C(C)(C)C)c1nc(C(=O)N[C@@H](Cc2ccccc2)C[C@H](C)C(=O)O)cs1
4. N=C1C(c2nc(-c3ccc(Br)cc3)cs2)=C(O)CN1CC1CCCO1 (configuration not stated)
5. CCCCCCCCC[n+]1cccc(C2C(C(=O)OCC)=C(C)NC(C)=C2C(=O)OCC)c1
6. Cc1nn(-c2ccccn2)c2c1C(SC#N)=C(C=O)CC2
7. O=c1oc2cc(OS(=O)(=O)c3ccccc3)ccc2c2c1CCCCC2

["> 50 µM", "> 100 µM", "> 25 µM", "> 100 µM", "15.2 µM", "33.8 µM", "> 100 µM"]

Hello, I would appreciate it if you could give TGI for each entry below.
1. O=C(Nc1ccccc1C(=O)Nc1nccs1)c1ccccc1
2. CCC1OC(/C(C)=C/C(C)/C=C/C2C(C)C2/C=C/C2OC(CC(=O)O)CC(O)C2O)CC=C1C (configuration not stated)
3. CN1N=Nc2c(C(F)(F)F)nn(-c3ccccc3)c2N(C)C1=O
4. COc1cc(CC2CC(c3ccc4c(c3)OCO4)OC2=O)cc(OC)c1OC (configuration not stated)
5. COc1cc(S(=O)(=O)N/N=C/c2cc(Br)c(O)c(OC)c2)c(OC)cc1NC(C)=O
6. c1ccc2c(c1)c1c3n2-c2cc(on2)C3CCC1 (configuration not stated)

["> 100 µM", "> 50 µM", "> 100 µM", "> 100 µM", "> 100 µM", "> 100 µM"]

Hello, I would appreciate it if you could give TGI for each entry below.
1. CC(=O)NS(=O)(=O)c1ccc(-n2nc(-c3ccccc3)cc2C2=CC(=O)C=CC2=O)cc1
2. O=S(=O)(O)c1ccc(Nc2ccnc3cc(Cl)ccc23)cc1
3. Cc1ccc2cnc(N)c(C#Cc3cncc(C(=O)Nc4ccc(CN5CCN(C)CC5)c(C(F)(F)F)c4)c3)c2c1

1: > 100 µM; 2: > 100 µM; 3: 1.43 µM
